system: Caenorhabditis elegans N2; experiment: mean nematode size ln(EXT) after 48 h, plate-adjusted (DMSO control set to 6) (ln(EXT), control-adjusted); higher = larger nematodes / less growth inhibition; settings: 100 µM; exposure time 48 h
This section presents compounds with their documented mean nematode size ln(EXT) (ln) values.

{"COMPOUND": "O=C(O)CCCOc1ccc(Cl)cc1Cl", "mean nematode size ln(EXT) (ln)": 6.21}
{"COMPOUND": "CCOC(=O)NCCOc1ccc(Oc2ccccc2)cc1", "mean nematode size ln(EXT) (ln)": 4.1}
{"COMPOUND": "CCCCCCCCOc1ccc(C(=O)c2ccccc2)c(O)c1 [2-Hydroxy-4-(octyloxy)benzophenone]", "mean nematode size ln(EXT) (ln)": 5.56}
{"COMPOUND": "CC(C)(C)[C@H](O)[C@H](Cc1ccc(Cl)cc1)n1cncn1 (racemic)", "mean nematode size ln(EXT) (ln)": 5.58}
{"COMPOUND": "O=C(O)COc1ccc(Cl)cc1Cl", "mean nematode size ln(EXT) (ln)": 6.02}
{"COMPOUND": "O=[N+]([O-])C(Br)(CO)CO", "mean nematode size ln(EXT) (ln)": 5.56}
{"COMPOUND": "CC(C)=CC1C(C(=O)OCc2coc(Cc3ccccc3)c2)C1(C)C (centres undefined)", "mean nematode size ln(EXT) (ln)": 5.8}
{"COMPOUND": "O=C(Nc1ccc(Cl)cc1)Nc1ccc(Cl)c(Cl)c1 [3,4,4'-Trichlorocarbanilide]", "mean nematode size ln(EXT) (ln)": 4.1}
{"COMPOUND": "CC(C)(C)c1cccc(C(C)(C)C)c1O", "mean nematode size ln(EXT) (ln)": 5.88}

* * *

test system: Caenorhabditis elegans N2; assay: mean nematode size ln(EXT) after 48 h, plate-adjusted (DMSO control set to 6) (ln(EXT), control-adjusted); higher = larger nematodes / less growth inhibition; details: 10 µM; exposure time 48 h
This section presents compounds with their documented mean nematode size ln(EXT) (ln) values.

{"COMPOUND": "O=C1c2ccccc2C(=O)N1SC(Cl)(Cl)Cl [Folpet]", "mean nematode size ln(EXT) (ln)": 5.84}
{"COMPOUND": "CC(O)CO (stereo not given) [Propylene glycol]", "mean nematode size ln(EXT) (ln)": 6.02}
{"COMPOUND": "Cc1cccc(N)c1 [3-Methylaniline]", "mean nematode size ln(EXT) (ln)": 5.88}
{"COMPOUND": "CCC(C)(C)C(=O)OC1=C(c2ccc(Cl)cc2Cl)C(=O)OC12CCCCC2 [Spirodiclofen]", "mean nematode size ln(EXT) (ln)": 5.73}
{"COMPOUND": "CCOc1cccc(C2(N3CCN(c4ccccc4)CC3)CCC(C)CC2)c1 (stereo not given)", "mean nematode size ln(EXT) (ln)": 5.79}

* * *

test system: Caenorhabditis elegans N2; experiment: mean nematode size ln(EXT) after 48 h, plate-adjusted (DMSO control set to 6) (ln(EXT), control-adjusted); higher = larger nematodes / less growth inhibition; conditions: 5 µM; exposure time 48 h
Structures can show the parent of a compound that is named as a salt.

{"COMPOUND": "Nc1ccc(Nc2ccccc2)cc1 [N-Phenyl-1,4-benzenediamine]", "mean nematode size ln(EXT) (ln)": 5.76}
{"COMPOUND": "CCOP(=S)(OCC)SCSP(=S)(OCC)OCC [Ethion]", "mean nematode size ln(EXT) (ln)": 5.28}
{"COMPOUND": "COc1cc(-c2ccc(N)c(OC)c2)ccc1N [3,3'-Dimethoxybenzidine dihydrochloride]", "mean nematode size ln(EXT) (ln)": 5.9}
{"COMPOUND": "CCOC(=O)c1ccc(O)cc1 [Ethylparaben]", "mean nematode size ln(EXT) (ln)": 5.93}
{"COMPOUND": "Cc1oc(-c2ccccc2)nc1CCOc1cccc2c1ccn2CCC(=O)O", "mean nematode size ln(EXT) (ln)": 5.85}
{"COMPOUND": "CCCCC(CC)COC(=O)CC(C(=O)OCC(CC)CCCC)S(=O)(=O)O (configuration not stated) [Docusate sodium]", "mean nematode size ln(EXT) (ln)": 5.93}
{"COMPOUND": "Oc1ccc(Cl)cc1Cl [2,4-Dichlorophenol]", "mean nematode size ln(EXT) (ln)": 6.07}
{"COMPOUND": "CCOc1nc(F)cc2nc(S(=O)(=O)Nc3c(Cl)cccc3Cl)nn12 [Diclosulam]", "mean nematode size ln(EXT) (ln)": 6.09}
{"COMPOUND": "CON(C)C(=O)Nc1ccc(Cl)c(Cl)c1 [Linuron]", "mean nematode size ln(EXT) (ln)": 6.19}
{"COMPOUND": "O=C1C2(Cl)C3(Cl)C4(Cl)C(Cl)(Cl)C5(Cl)C3(Cl)C1(Cl)C5(Cl)C24Cl (configuration not stated) [Kepone (Chlordecone)]", "mean nematode size ln(EXT) (ln)": 4.74}
{"COMPOUND": "CCCCOC(=O)CCCCC(=O)OCCCC [Dibutyl hexanedioate]", "mean nematode size ln(EXT) (ln)": 5.8}
{"COMPOUND": "COP(=O)(NC(C)=O)SC (configuration not stated) [Acephate]", "mean nematode size ln(EXT) (ln)": 5.76}
{"COMPOUND": "Cc1ccc(N)cc1N [2,4-Diaminotoluene]", "mean nematode size ln(EXT) (ln)": 5.9}
{"COMPOUND": "N[C@@H](Cc1c[nH]c2ccccc12)C(=O)O [L-Tryptophan]", "mean nematode size ln(EXT) (ln)": 5.89}
{"COMPOUND": "Clc1ccc(C(c2ccc(Cl)cc2)C(Cl)(Cl)Cl)cc1 [p,p'-DDT]", "mean nematode size ln(EXT) (ln)": 4.31}
{"COMPOUND": "CNCc1cc(F)ccc1Oc1ccc(Cl)c(Cl)c1", "mean nematode size ln(EXT) (ln)": 5.86}
{"COMPOUND": "O=P(O)(O)CCCl [Ethephon]", "mean nematode size ln(EXT) (ln)": 5.97}
{"COMPOUND": "NC(=O)NO [Hydroxyurea]", "mean nematode size ln(EXT) (ln)": 5.92}
{"COMPOUND": "CCOc1cccc(-n2cc(C(=O)N3CCN(c4cc(C(=O)O)c5ccccc5c4)CC3)nc2-c2ccc(C)cc2)c1", "mean nematode size ln(EXT) (ln)": 5.82}
{"COMPOUND": "Clc1ccc(C(c2ccccc2Cl)C(Cl)(Cl)Cl)cc1 (configuration not stated) [o,p'-DDT]", "mean nematode size ln(EXT) (ln)": 5.78}
{"COMPOUND": "Clc1cccc(Cl)c1 [1,3-Dichlorobenzene]", "mean nematode size ln(EXT) (ln)": 5.87}
{"COMPOUND": "Cc1cnc(C2=NC(=O)C(C)(C(C)C)N2)c(C(=O)O)c1 (configuration not stated) [Imazapic]", "mean nematode size ln(EXT) (ln)": 6.04}

Reference source: the supplement of paper PMC4858399
